# Tested on: MCF7
# ASSAY_OVERVIEW: Cytotoxicity against human MCF7 cells assessed as reduction in cell proliferation after 96 hrs by sulforhodamine B assay
# Type: functional, cell-based
# TEST_CONDITIONS: MCF7, 96 h
OUTCOME_MEASURE: EC50 (µM)
Quick note: give the figure in µM, leave out the unit.

For "CC(=O)O[C@H]1C[C@]2(C)[C@H]3CC=C4[C@@H]5CC(C)(C)CC[C@]5(NC(=O)Nc5ccccc5)CC[C@@]4(C)[C@]3(C)CC[C@H]2C(C)(C)[C@H]1OC(C)=O" , what is its reported EC50?
2.8

Requested read-out: EC50. Entry: "CC(=O)O[C@H]1C[C@]2(C)[C@H]3CC=C4[C@@H]5[C@@H](C)[C@H](C)CC[C@]5(NC(=O)Oc5ccccc5)CC[C@@]4(C)[C@]3(C)CC[C@H]2C(C)(C)[C@H]1OC(C)=O"
23.3

Name the recorded EC50 for "CC(=O)O[C@H]1C[C@]2(C)[C@H]3CC=C4[C@@H]5CC(C)(C)CC[C@]5(C(=O)O)CC[C@@]4(C)[C@]3(C)CC[C@H]2C(C)(C)[C@H]1OC(C)=O" .
15.1

###

# System: SW-1736
# ASSAY_OVERVIEW: Cytotoxicity against human SW1736 cells assessed as reduction in cell proliferation after 96 hrs by sulforhodamine B assay
# Type: functional, cell-based
# TEST_CONDITIONS: SW-1736, 96 h
OUTCOME_MEASURE: EC50 (µM)
Give your result in µM as a bare value.

Reported EC50, compound "CO[C@@H]1C[C@]2(C)[C@H]3CC=C4[C@@H]5CC(C)(C)CC[C@]5(C(=O)NCc5ccccc5)CC[C@@]4(C)[C@]3(C)CC[C@H]2C(C)(C)[C@H]1OC" : ____
20.5

Find the recorded EC50 belonging to "CC(=O)O[C@@H]1[C@H](OC(C)=O)C[C@]2(C)[C@H]3CC=C4[C@@H]5CC(C)(C)CC[C@]5(C(=O)NCc5ccccc5)CC[C@@]4(C)[C@]3(C)CC[C@H]2C1(C)C" and report it.
20.7

// returns reported EC50 for input "CC(=O)O[C@H]1C[C@]2(C)[C@H]3CC=C4[C@@H]5CC(C)(C)CC[C@]5(NC(=O)Nc5ccccc5)CC[C@@]4(C)[C@]3(C)CC[C@H]2C(C)(C)[C@H]1OC(C)=O"
2.8

Please report the recorded EC50 for "CC(=O)O[C@H]1C[C@]2(C)[C@H]3CC=C4[C@@H]5[C@@H](C)[C@H](C)CC[C@]5(NC(=O)Oc5ccccc5)CC[C@@]4(C)[C@]3(C)CC[C@H]2C(C)(C)[C@H]1OC(C)=O" .
5.5

###

Would you mind telling me the reported selectivity ratio of each entry?
# ASSAY_OVERVIEW: Selectivity index, ratio of EC50 for mouse NIH/3T3 cells to EC50 for human MCF7 cells
# TEST_CONDITIONS: NIH/3T3 cells versus MCF7 cells
Just the number.

Please report the recorded selectivity ratio for "COCO[C@@H]1C[C@]2(C)[C@H]3CC=C4[C@@H]5CC(C)(C)CC[C@]5(C(=O)NCc5ccccc5)CC[C@@]4(C)[C@]3(C)CC[C@H]2C(C)(C)[C@H]1O" .
5

# lookup: selectivity ratio of "COCCO[C@@H]1C[C@]2(C)[C@H]3CC=C4[C@@H]5CC(C)(C)CC[C@]5(C(=O)NCc5ccccc5)CC[C@@]4(C)[C@]3(C)CC[C@H]2C(C)(C)[C@H]1OCCOC"
5

###

Would you mind telling me the reported pEC50 of each entry?
# Tested on: SW-1736
# ASSAY_OVERVIEW: Cytotoxicity against human SW1736 cells assessed as reduction in cell proliferation after 96 hrs by sulforhodamine B assay
# Assay type: functional, cell-based
# TEST_CONDITIONS: SW-1736, 96 h
pEC50 field: float, defined as -log10 of concentration (mol/L).

Form field - read-out: pEC50; system: SW-1736; submitted item: "CO[C@@H]1C[C@]2(C)[C@H]3CC=C4[C@@H]5CC(C)(C)CC[C@]5(C(=O)NCc5ccccc5)CC[C@@]4(C)[C@]3(C)CC[C@H]2C(C)(C)[C@H]1O"
4.74

Give recorded pEC50 with SW-1736 for the following compound: "CC(=O)O[C@H]1C[C@]2(C)[C@H]3CC=C4[C@@H]5CC(C)(C)CC[C@]5(NC(=O)Oc5ccccc5)CC[C@@]4(C)[C@]3(C)CC[C@H]2C(C)(C)[C@H]1OC(C)=O"
5.14

Request body: readout pEC50, system SW-1736, query "CC(=O)O[C@H]1C[C@]2(C)[C@H]3CC=C4[C@@H]5CC(C)(C)CC[C@]5(C(=O)NCc5ccccc5)CC[C@@]4(C)[C@]3(C)CC[C@H]2C(C)(C)[C@@H]1OC(C)=O" . Return the value.
5.28

###

# Test system: HT-29
# ASSAY_OVERVIEW: Cytotoxicity against human HT-29 cells assessed as reduction in cell proliferation after 96 hrs by sulforhodamine B assay
# Format: functional, cell-based
# TEST_CONDITIONS: HT-29, 96 h
pEC50: −log10 of the molar value.
Respond with Criterion met for pEC50 values of 5 and above, Criterion not met for values below.

Is pEC50 for "CC(=O)O[C@H]1C[C@]2(C)[C@H]3CC=C4[C@@H]5CC(C)(C)CC[C@]5(C(=O)Nc5ccccc5)CC[C@@]4(C)[C@]3(C)CC[C@H]2C(C)(C)[C@H]1OC(C)=O" at or above 5?
Criterion met

Textbook exercise: given the entry "CC(=O)O[C@H]1C[C@]2(C)[C@H]3CC=C4[C@@H]5CC(C)(C)CC[C@]5(C(=O)NCc5ccccc5)CC[C@@]4(C)[C@]3(C)CC[C@H]2C(C)(C)[C@@H]1OC(C)=O" , state whether its pEC50 is greater than or equal to 5.
Criterion met

Say whether "CC(=O)O[C@H]1C[C@]2(C)[C@H]3CC=C4[C@@H]5[C@@H](C)[C@H](C)CC[C@]5(NC(=O)Nc5ccccc5)CC[C@@]4(C)[C@]3(C)CC[C@H]2C(C)(C)[C@H]1OC(C)=O" shows pEC50 of 5 or more.
Criterion not met

###

Hi there, I'd appreciate the recorded pEC50 for every entry that follows.
# System: HT-29
# ASSAY_OVERVIEW: Cytotoxicity against human HT-29 cells assessed as reduction in cell proliferation after 96 hrs by sulforhodamine B assay
# Assay type: functional, cell-based
# TEST_CONDITIONS: HT-29, 96 h
pEC50 (log units): -log10 of the concentration in mol/L.

Request the reported pEC50 associated with "CC1(C)CC[C@]2(C(=O)NCc3ccccc3)CC[C@]3(C)C(=CC[C@@H]4[C@@]5(C)C[C@@H]6O[C@@H]6C(C)(C)[C@@H]5CC[C@]43C)[C@@H]2C1"
4.58

Could you share which pEC50 value was measured for "CC(=O)O[C@@H]1C[C@]2(C)[C@H]3CC=C4[C@@H]5CC(C)(C)CC[C@]5(C(=O)Nc5ccccc5)CC[C@@]4(C)[C@]3(C)CC[C@H]2C(C)(C)[C@H]1OC(C)=O" ?
5.54

Fill in the blank: the reported pEC50 of "CC(=O)O[C@H]1C[C@]2(C)[C@H]3CC=C4[C@@H]5[C@@H](C)[C@H](C)CC[C@]5(C(=O)Nc5ccccc5)CC[C@@]4(C)[C@]3(C)CC[C@H]2C(C)(C)[C@H]1OC(C)=O" is ____.
5.14

Which value of pEC50 has been reported for "CC(=O)O[C@@H]1C[C@]2(C)[C@H]3CC=C4[C@@H]5CC(C)(C)CC[C@]5(C(=O)NCCc5ccccc5)CC[C@@]4(C)[C@]3(C)CC[C@H]2C(C)(C)[C@H]1OC(C)=O" in the records?
5.21

So what does the record say about pEC50 for "COCCO[C@@H]1C[C@]2(C)[C@H]3CC=C4[C@@H]5CC(C)(C)CC[C@]5(C(=O)NCc5ccccc5)CC[C@@]4(C)[C@]3(C)CC[C@H]2C(C)(C)[C@H]1OCCOC" ?
5.31

Quick check: pEC50 of "CC1(C)CC[C@]2(C(=O)NCc3ccccc3)CC[C@]3(C)C(=CC[C@@H]4[C@@](C)(CC=O)[C@H](C(C)(C)C=O)CC[C@]43C)[C@@H]2C1" ?
5.08

Find the recorded pEC50 belonging to "CO[C@@H]1C[C@]2(C)[C@H]3CC=C4[C@@H]5CC(C)(C)CC[C@]5(C(=O)NCc5ccccc5)CC[C@@]4(C)[C@]3(C)CC[C@H]2C(C)(C)[C@H]1OC" and report it.
4.84

Given the compound "CC(=O)O[C@H]1C[C@]2(C)[C@H]3CC=C4[C@@H]5CC(C)(C)CC[C@]5(NC(=O)c5ccccc5)CC[C@@]4(C)[C@]3(C)CC[C@H]2C(C)(C)[C@H]1OC(C)=O" , what is its reported pEC50?
5.17

Sample "CC(=O)O[C@@H]1[C@H](OC(C)=O)C[C@]2(C)[C@H]3CC=C4[C@@H]5CC(C)(C)CC[C@]5(C(=O)O)CC[C@@]4(C)[C@]3(C)CC[C@H]2C1(C)C" — what was its pEC50?
4.67

Sample "COCO[C@@H]1C[C@]2(C)[C@H]3CC=C4[C@@H]5CC(C)(C)CC[C@]5(C(=O)NCc5ccccc5)CC[C@@]4(C)[C@]3(C)CC[C@H]2C(C)(C)[C@H]1O" — what was its pEC50?
5.28
